# MEASURED ON: HLA-DRB1*0301 (human)
# PROCEDURE DETAILS: competition binding; FIG. 35A
QUANTITY MEASURED: IC50 (µM)

Query: Given the entry ESNIMSTINGYVPES [SEQ ID NO: 5 (ESNIMSTINGYVPES)] , report its measured IC50.
Result: 80.5

Query: Given the entry KIVFKNMASRPYSIY [SEQ ID NO: 3 (KIVFKNMASRPYSIY)] , report its measured IC50.
Result: 78.6

Data provenance: patent US20210300985A1
